- tested target: AEA-DA lipid probe targets in Neuro2a cells (Mus musculus)
- run parameters: competitor 25 μM
measured metric: SILAC ratio, Akr1b10
Answer using only a numeral; do not append any unit.

# molecule, SILAC ratio, Akr1b10
data = [
    ("O=C(/C=C/c1cccnc1)NCCCCC1CCN(C(=O)c2ccccc2)CC1 [FK-866, reference compound]", 1.9),
    ("C=CCN(C)CCCCCCOc1ccc(C(=O)c2ccc(Br)cc2)c(F)c1 [Ro 48-8071, reference compound]", 1.5),
    ("CN1CCN(C(=O)c2[nH]c3ccc([N+](=O)[O-])cc3c2-c2ccccc2)CC1 [MJN228]", 2.8),
]

Could you now look at the following molecule, please?
Exercise: Entry CN1CCN(C(=O)c2c(-c3ccccc3)c3cc([N+](=O)[O-])ccc3n2C)CC1 [KML110] needs its SILAC ratio, Akr1b10 filled in; supply it.
Key: 3.9

###

- tested target: AEA-DA lipid probe targets in Neuro2a cells (Mus musculus)
- Sequence (Q9R0P6 1-179): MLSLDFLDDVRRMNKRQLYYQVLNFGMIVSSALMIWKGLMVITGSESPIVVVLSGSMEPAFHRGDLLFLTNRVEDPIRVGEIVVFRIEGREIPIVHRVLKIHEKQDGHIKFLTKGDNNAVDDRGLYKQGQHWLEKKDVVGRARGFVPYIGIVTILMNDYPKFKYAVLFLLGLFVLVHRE
- run parameters: competitor 25 μM
measured metric: SILAC ratio, Sec11a
Answer using only a numeral; do not append any unit.

Observe how each entry below is paired with its result.
# compound, SILAC ratio, Sec11a
rows = [
    ("CN1CCN(C(=O)c2c(-c3ccccc3)c3cc([N+](=O)[O-])ccc3n2C)CC1", 1.6),
    ("C=CCN(C)CCCCCCOc1ccc(C(=O)c2ccc(Br)cc2)c(F)c1 [Ro 48-8071, reference compound]", 1.6),
    ("O=C(/C=C/c1cccnc1)NCCCCC1CCN(C(=O)c2ccccc2)CC1 [FK-866, reference compound]", 1.1),
]

Could you now look at the following compound, please?
Exercise: # assay system AEA-DA lipid probe targets in Neuro2a cells (Mus musculus): give SILAC ratio, Sec11a of CN1CCN(C(=O)c2[nH]c3ccc([N+](=O)[O-])cc3c2-c2ccccc2)CC1
Key: 1.6

###

- tested target: AEA-DA lipid probe targets in Neuro2a cells (Mus musculus)
- run parameters: competitor 25 μM
measured metric: SILAC ratio Rab1A
Answer using only a numeral; do not append any unit.

Observe how each entry below is paired with its result.
# molecule, SILAC ratio Rab1A
records = [
    ("CN1CCN(C(=O)c2[nH]c3ccc([N+](=O)[O-])cc3c2-c2ccccc2)CC1", 1.3),
    ("CN1CCN(C(=O)c2c(-c3ccccc3)c3cc([N+](=O)[O-])ccc3n2C)CC1", 1.3),
    ("O=C(/C=C/c1cccnc1)NCCCCC1CCN(C(=O)c2ccccc2)CC1 [FK-866, reference compound]", 1.1),
]

Exercise: # assay system AEA-DA lipid probe targets in Neuro2a cells (Mus musculus): give SILAC ratio Rab1A of C=CCN(C)CCCCCCOc1ccc(C(=O)c2ccc(Br)cc2)c(F)c1 [Ro 48-8071, reference compound]
Key: 1.0
